tested on: Botrytis cinerea; test: In vivo preventive test on Botrytis cinerea (grey mould); settings: 500 ppm; gherkin plants sprayed 24 hours before contamination; grading 4-5 days after contamination vs control plants
Reported % of efficacy (protection) values follow for various compounds
Give just the numeric value; % need not be written.

Past entries and their recorded results:
{"COMPOUND": "C#Cc1cnc2ccc(C3=NOC(C)(C(=O)NCC4CCOC4)C3)cc2c1 (centres unmarked)", "MEASUREMENT_UNITS": "%", "NUMERIC_VALUE": 100}
{"COMPOUND": "COc1cnc2ccc(C3=NOC(C)(C(=O)NC(C)C)C3)cc2c1 (centres unmarked)", "MEASUREMENT_UNITS": "%", "NUMERIC_VALUE": 99}
{"COMPOUND": "CCNC(=O)C1(C)CC(c2ccc3ncc(Br)cc3c2)=NO1 (centres unmarked)", "MEASUREMENT_UNITS": "%", "NUMERIC_VALUE": 99}
{"COMPOUND": "CCn1cc(CNC(=O)C2(C)CC(c3ccc4ncc(Br)cc4c3)=NO2)cn1 (centres unmarked)", "MEASUREMENT_UNITS": "%", "NUMERIC_VALUE": 99}
{"COMPOUND": "CCOCCCNC(=O)C1(C)CC(c2ccc3ncc(I)cc3c2)=NO1 (racemic)", "MEASUREMENT_UNITS": "%", "NUMERIC_VALUE": 98}
{"COMPOUND": "CC(C)NC(=O)C1(C)CC(c2ccc3ncc(Cl)cc3c2)=NO1 (centres unmarked)", "MEASUREMENT_UNITS": "%", "NUMERIC_VALUE": 99}
{"COMPOUND": "C#Cc1cnc2ccc(C3=NOC(C)(C(=O)Nc4cnn(C)c4)C3)cc2c1 (centres unmarked)", "MEASUREMENT_UNITS": "%", "NUMERIC_VALUE": 98}
{"COMPOUND": "C#Cc1cnc2ccc(C3=NOC(C=C)(C(=O)NCc4cn(CC)nc4C)C3)cc2c1 (centres unmarked)", "MEASUREMENT_UNITS": "%", "NUMERIC_VALUE": 98}

Next item in the queue.
So what's the measured % of efficacy (protection) for this one? C#Cc1cnc2ccc(C3=NOC(C)(C(=S)NCc4cnc(C)cn4)C3)cc2c1 (centres unmarked)
97

* * *

assay type: physicochemical; conditions: HPLC on reversed phase columns, method [a]: pH 2.7, 0.1% formic acid in water / acetonitrile, linear gradient 10% to 95% acetonitrile
Reported log P values follow for various compounds

Past entries and their recorded results:
{"COMPOUND": "C#Cc1cnc2ccc(C3=NOC(C)(C(=O)NC(COc4ccc(F)cc4)C4CC4)C3)cc2c1 (stereo not shown) [compound 318]", "log P": "3.58[a]"}
{"COMPOUND": "C=Cc1cnc2ccc(C3=NOC(C)(C(=O)NCc4cn(CC)nc4C)C3)cc2c1 (stereo not shown) [compound 308]", "log P": "1.95[a]"}
{"COMPOUND": "C#Cc1cnc2ccc(C3=NOC(C)(C(=O)NCc4cc(OC)ccn4)C3)cc2c1 (stereo not shown) [compound 677]", "log P": "1.34[a]"}

So what's the measured log P for this one? C#Cc1cnc2c(C)cc(C3=NOC(C)(C(=O)NC4CCC4)C3)cc2c1 (stereo not shown) [compound 578]
3.25[a]

So what's the measured log P for this one? CCCn1cc(CNC(=O)C2(C)CC(c3cc(Cl)c4ncc(Br)cc4c3)=NO2)c(C)n1 (racemic) [compound 549]
3.06[a]

So what's the measured log P for this one? CC(C)NC(=O)C12CCCCC1C(c1ccc3ncc(Br)cc3c1)=NO2 (stereo not shown) [compound 272]
3.55[a]

So what's the measured log P for this one? C#Cc1cnc2ccc(C3=NOC(C)(C(=O)N(OC)C(C)C)C3)cc2c1 (stereo not shown) [compound 650]
3.15[a]

* * *

Reported log P values follow for various compounds
format: physicochemical; settings: HPLC on reversed phase columns, method [a]: pH 2.7, 0.1% formic acid in water and acetonitrile, linear gradient 10% to 95% acetonitrile

{"COMPOUND": "CC1(C(=O)N/C(=N/O)C(C)(C)C)CC(c2ccc3ncc(Br)cc3c2)=NO1 (centres unmarked)", "log P": "2.88[a]"}

So what's the measured log P for this one? C#Cc1cnc2ccc(C3=NOC(C)(C(=O)NCc4ccnc(NC5CC5)c4)C3)cc2c1 (centres unmarked)
1.45[a]

So what's the measured log P for this one? CC1(CNC(=O)C2(C)CC(c3ccc4ncc(Br)cc4c3)=NO2)CCC1 (centres unmarked)
3.65[a]

So what's the measured log P for this one? CC1(C(=O)NCc2cccnc2C#N)CC(c2ccc3ncc(Br)cc3c2)=NO1 (centres unmarked)
1.91[a]

* * *

test system: Botrytis cinerea; experiment: In vivo preventive test on Botrytis cinerea (grey mould); conditions: 500 ppm; gherkin plants sprayed 24 hours before contamination; grading 4-5 days after contamination vs control plants
Reported % of efficacy (protection) values follow for various compounds
Answer with the number, then the unit.

{"COMPOUND": "C#Cc1cnc2ccc(C3=NOC(C)(C(=O)NCc4cnc(C)cn4)C3)cc2c1 (stereo not shown) [compound 167]", "PROPERTY": "% of efficacy (protection)", "RESULT": "100%"}
{"COMPOUND": "COC1(C(=O)NC(C)C)CC(c2ccc3ncc(Br)cc3c2)=NO1 (stereo not shown) [compound 48]", "PROPERTY": "% of efficacy (protection)", "RESULT": "100%"}
{"COMPOUND": "C=CC1(C(=O)NCc2cn(CC)nc2C)CC(c2ccc3ncc(I)cc3c2)=NO1 (stereo not shown) [compound 728]", "PROPERTY": "% of efficacy (protection)", "RESULT": "97%"}

So what's the measured % of efficacy (protection) for this one? C#Cc1cnc2c(Cl)cc(C3=NOC(C)(C(=O)NC(C)C)C3)cc2c1 (stereo not shown) [compound 543]
100%

* * *

tested on: Septoria tritici; experiment: In vivo preventive test on Septoria tritici (leaf spot on wheat); details: 500 ppm; wheat plants sprayed 24 hours before contamination; grading 21 to 28 days after contamination vs control plants
PROPERTY: % of efficacy (protection) (%)
Give just the numeric value; % need not be written.

{"COMPOUND": "CC(O)C1(C(=O)NCC2COC(C)(C)O2)CC(c2ccc3ncc(Br)cc3c2)=NO1 (mixture of isomers)", "NUMERIC_VALUE": 71}
{"COMPOUND": "CC1(C(=O)NC2CCCC2)CC(c2ccc3ncc(Br)cc3c2)=NO1 (racemic)", "NUMERIC_VALUE": 98}
{"COMPOUND": "CC1(CNC(=O)C2(C)CC(c3ccc4ncc(Br)cc4c3)=NO2)CCCO1 (stereo not shown)", "NUMERIC_VALUE": 83}

Next item in the queue.
So what's the measured % of efficacy (protection) for this one? C#Cc1cnc2ccc(C3=NOC(C)(C(=O)NCc4ccc(C)n4C)C3)cc2c1 (stereo not shown)
71

* * *

test system: Botrytis cinerea; assay: In vivo preventive test on Botrytis cinerea (grey mould); conditions: 500 ppm; gherkin plants sprayed 24 hours before contamination; grading 4-5 days after contamination vs control plants
PROPERTY: % of efficacy (protection) (%)
Give just the numeric value; % need not be written.

Past entries and their recorded results:
{"COMPOUND": "C#Cc1cnc2ccc(C3=NOC(C)(C(=O)NC4CC4C4CC4)C3)cc2c1 (centres unmarked)", "MEASUREMENT_UNITS": "%", "NUMERIC_VALUE": 99}
{"COMPOUND": "CC1(C(=O)NCc2cnn(-c3ccccc3)c2)CC(c2ccc3ncc(Br)cc3c2)=NO1 (centres unmarked)", "MEASUREMENT_UNITS": "%", "NUMERIC_VALUE": 87}
{"COMPOUND": "CCn1cc(CNC(=O)C2(C)CC(c3ccc4ncc(Br)cc4c3)=NO2)c(C)n1 (centres unmarked)", "MEASUREMENT_UNITS": "%", "NUMERIC_VALUE": 100}
{"COMPOUND": "CCn1cc(CNC(=O)C2(C)CC(c3ccc4ncc(SC)cc4c3)=NO2)c(C)n1 (centres unmarked)", "MEASUREMENT_UNITS": "%", "NUMERIC_VALUE": 88}

Please tell me: % of efficacy (protection) of C#Cc1cnc2ccc(C3=NOC(C)(C(=O)NC(C)c4ccc(Cl)nc4)C3)cc2c1 (centres unmarked) , system Botrytis cinerea?
100

Please tell me: % of efficacy (protection) of COC1(C(=O)NC2CC2)CC(c2ccc3ncc(I)cc3c2)=NO1 (racemic) , system Botrytis cinerea?
100

Please tell me: % of efficacy (protection) of C=CC1(C(=O)NC(C)C)CC(c2ccc3ncc(Br)cc3c2)=NO1 (centres unmarked) , system Botrytis cinerea?
95

Please tell me: % of efficacy (protection) of CC(C)NC(=O)C1(C)CC(c2ccc3ncc(I)cc3c2)=NO1 (centres unmarked) , system Botrytis cinerea?
100

Please tell me: % of efficacy (protection) of C#Cc1cnc2ccc(C3=NOC(C)(C(=O)NC(CC)COC)C3)cc2c1 (centres unmarked) , system Botrytis cinerea?
100

Please tell me: % of efficacy (protection) of C#Cc1cnc2c(C)cc(C3=NOC(C)(C(=O)NCCCOCC)C3)cc2c1 (racemic) , system Botrytis cinerea?
100

Please tell me: % of efficacy (protection) of CCOCCCNC(=O)C1(C)CC(c2ccc3ncc(Br)cc3c2)=NO1 (centres unmarked) , system Botrytis cinerea?
98

Please tell me: % of efficacy (protection) of COC1(C(=O)NCC2COC(C)(C)O2)CC(c2ccc3ncc(I)cc3c2)=NO1 (centres unmarked) , system Botrytis cinerea?
100

Please tell me: % of efficacy (protection) of COC1(C(=O)NCC2COC(C)(C)O2)CC(c2ccc3ncc(Br)cc3c2)=NO1 (centres unmarked) , system Botrytis cinerea?
99

Please tell me: % of efficacy (protection) of C#Cc1cnc2ccc(C3=NOC(C)(C(=O)NC(C)C)C3)cc2c1 (centres unmarked) , system Botrytis cinerea?
100

Please tell me: % of efficacy (protection) of CON=CC(C)(C)NC(=O)C1(C)CC(c2ccc3ncc(Br)cc3c2)=NO1 (centres unmarked) , system Botrytis cinerea?
87

Please tell me: % of efficacy (protection) of C#Cc1cnc2c(Cl)cc(C3=NOC(C)(C(=O)NCc4cnc(C)cn4)C3)cc2c1 (centres unmarked) , system Botrytis cinerea?
97

Please tell me: % of efficacy (protection) of COC1(C(=O)NCC2COC(C)(C)O2)CC(c2cc(Cl)c3ncc(Br)cc3c2)=NO1 (centres unmarked) , system Botrytis cinerea?
99
